Test: Cell Viability - LYMP2-008 (AID 980); further: nearly all actives have a fitted effect of over 60% in size
Settings: LYMP2-008 lymphoblastoid cell viability, qHTS; series mostly up to 92.2 µM
Records with an inconclusive call do not appear. The source made the active and inactive calls. The call rests on the fitted dose curve; in most records, active means well fitted cell-killing curve with a large enough effect; inconclusive means small, poorly fitted or top-dose-only effect; inactive means flat fitted curve, though single readings scatter.
// classify into active, inactive

O=C1NC(=O)C(c2ccccc2)(c2ccccc2)N1 : inactive

## Input Could you check what this test reported for CN(C)CCC(c1ccccc1)c1ccccn1 (stereo not given) ?
## Output inactive

## Input Hi team, can someone confirm the assay call for `CC/C(=C(\c1ccccc1)c1ccc(OCCN(C)C)cc1)c1ccccc1` ?
## Output active

## Input Recorded test outcome, item `CCn1cc(C(=O)O)c(=O)c2ccc(C)nc21`
## Output inactive

## Input So what was the verdict on `CC(=O)O[C@]1(C(C)=O)CC[C@H]2[C@@H]3C=C(Cl)C4=CC(=O)[C@@H]5C[C@@H]5[C@]4(C)[C@H]3CC[C@@]21C` in this test?
## Output inactive

====

Tested on: PA-1
Test: Primary qHTS to identify gynecologic anti-cancer compounds using libraries of approved drugs and bioactive compounds (AID 1345084); further: nearly all actives have a fitted effect of over 55% in size; further: potency means the concentration at half of the fitted maximal effect
Details: Gynecologic cancer cell panel viability, ATPlite luminescence, 48 h; series mostly up to 57.5 µM
Results filed as inconclusive are left out. The source made the active and inactive calls. Calls come from the whole dose curve; as a rule, active = well fitted cell-killing curve with a large enough effect; inconclusive = small, poorly fitted or top-dose-only effect, or effect the other way; inactive = flat fitted curve, though single readings scatter.
measured quantity: Potency

O=C(CCN1CCN(C(=O)OCc2cc(Cl)cc(Cl)c2)CC1)c1ccc2[nH]c(=O)oc2c1 : inactive
COc1ccc2c(Oc3ccc(NC(=O)c4c(C)n(CC(C)(C)O)n(-c5ccccc5)c4=O)nc3)ccnc2c1 : 31.6 µM (active)
CCS(=O)(=O)N1CC(CC#N)(n2cc(-c3ncnc4[nH]ccc34)cn2)C1 : inactive
CCN(CC)C(=O)c1ccc(O)c(OC)c1 : inactive

Let us move to another entry and its Potency.
## Input Please look up its Potency: CC1CCC(C(=O)N(c2cc(C#CC(C)(C)C)sc2C(=O)O)C2CCC(O)CC2)CC1 (stereo not given)
## Output inactive

====

Assay: Quantitative High-Throughput drug screen in 47 multiple myeloma cell lines against the NCATS MIPE library collection: RPMI8226_ATCC cell viability assay (AID 1919871); further: nearly all actives have a fitted effect of over 30% in size
Details: RPMI8226 myeloma viability, CellTiter-Glo ATP luminescence, 48 h; series mostly up to 45.8 µM
Results filed as inconclusive are left out. Calls of active or inactive are those of the source. Calls follow the shape of the dose curve; as a rule, active = well fitted cell-killing curve with a large enough effect; inconclusive = small, poorly fitted or top-dose-only effect, or effect the other way; inactive = no such curve, though single readings can be large or run the other way.
Valid outcomes are listed here; reply with one: active, inactive

Below, 4 molecules whose answers are already recorded.
CC=CC(=O)N(CC)c1ccccc1C : active
C[C@H]1[C@H](NC(=O)C(=NOC(C)(C)C(=O)O)c2csc(N)n2)C(=O)N1S(=O)(=O)O : inactive
O=C(O)[C@H]1O[C@H](Oc2cc3oc(-c4ccccc4)cc(=O)c3c(O)c2O)[C@H](O)[C@@H](O)[C@H]1O : active
CC(C)n1cnc2c(NCCCCCCNC(=O)OC(C)(C)C)nc(NCCO)nc21 : active

Now look at this one.
## Input Test call, this molecule: `O=C1c2ccccc2-[n+]2ccc3c([nH]c4ccccc43)c21`
## Output active

====

Test: Cell Viability - LYMP2-014 (AID 983);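 further: cells exposed to compound for 24 h at 37 °C; nearly all actives have a fitted effect of over 50% in size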
Conditions: LYMP2-014 lymphoblastoid cells, viability qHTS; series mostly up to 92.2 µM
Records with an inconclusive call do not appear. Active and inactive are the calls of the source. The call rests on the fitted dose curve; in most records, active means well fitted cell-killing curve with a large enough effect; inconclusive means small, poorly fitted or top-dose-only effect; inactive means flat fitted curve, though single readings scatter.
Write down the outcome that applies. Available outcomes: active, inactive

CCn1cc(C(=O)O)c(=O)c2ccc(C)nc21 : inactive
O=C1NC(=O)C(c2ccccc2)(c2ccccc2)N1 : inactive
CN(C)CCC(c1ccccc1)c1ccccn1 (stereo not drawn) : inactive

## Input Status in this test for `CC(=O)O[C@]1(C(C)=O)CC[C@H]2[C@@H]3C=C(Cl)C4=CC(=O)[C@@H]5C[C@@H]5[C@]4(C)[C@H]3CC[C@@]21C` ?
## Output inactive

## Input Status in this test for `CC/C(=C(\c1ccccc1)c1ccc(OCCN(C)C)cc1)c1ccccc1` ?
## Output active

## Input Call for entry `CCCNC(=O)NS(=O)(=O)c1ccc(Cl)cc1` :
## Output inactive

## Input Write down the call the test reported for this compound. Item: `O=c1c(-c2ccc(O)cc2)coc2cc(O)ccc12`
## Output inactive

## Input Could you check what this test reported for `CCCCC1C(=O)N(c2ccccc2)N(c2ccccc2)C1=O` ?
## Output inactive
